# AUC(0-t) per entry
# Measurement Description: oral pharmacokinetic test
# Type: in vivo, ICR mice
# Recorded Conditions: ICR, mouse, plasma, 10 mg/kg, 10 mg/Kg PO, vehicle B (0.5% methyl cellulose)
Readout Kind: AUC(0-t) (ng·h/mL)

INSERT INTO assay_data (smiles_repr, readout_kind, experimental_value) VALUES
  ('Cc1cn(-c2cc(NC(=O)c3cc(C#Cc4cnc5c(Nc6cnn(C)c6)cccn45)c(C)cc3F)cc(C(C)(C)C#N)c2)cn1', 'AUC(0-t)', 80300),
  ('Cc1cn(-c2cc(NC(=O)c3cc(C#Cc4cnc5c(Nc6cnn(C)c6)cccn45)c(C)cc3F)cc(C(F)(F)F)c2)cn1', 'AUC(0-t)', 30400);

---

# GI50 per entry
# Tested on: T315I-TCCS cells
# Measurement Description: human CML cell proliferation inhibition
# Format: cell-based
# Recorded Conditions: 72 hours, Cell Counting Kit-8
Readout Kind: GI50

INSERT INTO measurements (smiles_repr, readout_kind, experimental_value) VALUES
  ('Cc1cc(F)c(C(=O)Nc2cc(CN3CCN(CCO)CC3)cc(C(F)(F)F)c2)cc1C#Cc1cnc2c(Nc3cnn(C)c3)cccn12', 'GI50', '> 100 nM'),
  ('Cc1cc(F)c(C(=O)Nc2cc(N3CCN(C)CC3)cc(C(C)(C)C#N)c2)cc1C#Cc1cnc2c(Nc3cnn(C)c3)cccn12', 'GI50', '100 nM'),
  ('Cc1cc(F)c(C(=O)Nc2ccc(CN3CCOCC3)c(C(F)(F)F)c2)cc1C#Cc1cnc2c(Nc3cnn(C)c3)cccn12', 'GI50', '100 nM'),
  ('Cc1cc(F)c(C(=O)Nc2cc(CN3CCN(S(C)(=O)=O)CC3)cc(C(F)(F)F)c2)cc1C#Cc1cnc2c(Nc3cnn(C)c3)cccn12', 'GI50', '> 100 nM'),
  ('Cc1cc(F)c(C(=O)Nc2cc(-c3ccncc3)cc(C(C)(C)C#N)c2)cc1C#Cc1cnc2c(Nc3cn[nH]c3)cccn12', 'GI50', '> 100 nM'),
  ('Cc1cc(F)c(C(=O)Nc2ccc(CN3CCOCC3)c(C(C)(C)C#N)c2)cc1C#Cc1cnc2c(Nc3cnn(C)c3)cccn12', 'GI50', '> 100 nM');

---

# Test system: T315I-TCCS cells
# Measurement Description: human CML cell proliferation inhibition
# Format: cell-based
# Recorded Conditions: 72 hours, Cell Counting Kit-8
# GI50 per entry
Readout Kind: GI50 (nM)

INSERT INTO measurements (compound, target_or_system, readout_kind, units_of_measure, value_comparator, experimental_value) VALUES
  ('Cc1cc(F)c(C(=O)Nc2ccc(Cn3ccnc3)c(C(F)(F)F)c2)cc1C#Cc1cnc2c(Nc3cnn(C)c3)cccn12', 'T315I-TCCS cells', 'GI50', 'nM', '>', 100),
  ('Cc1cc(F)c(C(=O)Nc2cc(CN3CCC(N(C)C)C3)cc(C(F)(F)F)c2)cc1C#Cc1cnc2c(Nc3cn[nH]c3)cccn12 (stereo not drawn)', 'T315I-TCCS cells', 'GI50', 'nM', '<', 10),
  ('Cc1cc(F)c(C(=O)Nc2cc(N3CCN(C)CC3)cc(C(F)(F)F)c2)cc1C#Cc1cnc2c(Nc3cn[nH]c3)cccn12', 'T315I-TCCS cells', 'GI50', 'nM', '=', 100),
  ('Cc1cc(F)c(C(=O)Nc2cc(Cn3cncn3)cc(C(C)(C)C#N)c2)cc1C#Cc1cnc2c(Nc3cn[nH]c3)cccn12', 'T315I-TCCS cells', 'GI50', 'nM', '=', 100),
  ('Cc1cc(F)c(C(=O)Nc2cc(CN3CCN(S(C)(=O)=O)CC3)cc(C(C)(C)C#N)c2)cc1C#Cc1cnc2c(Nc3cn[nH]c3)cccn12', 'T315I-TCCS cells', 'GI50', 'nM', '=', 100),
  ('Cc1cc(F)c(C(=O)Nc2ccc(CN3CCN(C)C(=O)C3)c(C(F)(F)F)c2)cc1C#Cc1cnc2c(Nc3cn[nH]c3)cccn12', 'T315I-TCCS cells', 'GI50', 'nM', '=', 100);
